Entries annotated with measured log10 of IC50
- Assayed system: HLA DRB1*0405 (human)
- Procedure details: competition with 125I probe peptide, purified HLA
Quick note: numbers are log10 of IC50, with nM as the unit.

Would you please look over these solved cases?
Item QRFHNIRGRWTGRCM (modifications not checked) [HPV16.E6.130 HTL epitope] : provide log10 of IC50
3.65

Item WKHMRLECAIYYKAR (modifications not checked) [HPV16.E2.033 HTL epitope] : provide log10 of IC50
2.75

Item DWVMAIFGVNPTVAEGF (modifications not checked) [HPV45.E1.228 HTL epitope] : provide log10 of IC50
1.96

Item TGRCIACWRRPRTET (modifications not checked) [HPV31.E6.132 HTL epitope] : provide log10 of IC50
2.87

Item NGWFYVEAVIDRQTG (modifications not checked) [HPV31.E1.15 HTL epitope] : provide log10 of IC50
2.25

Item FHSIAGQYRGQCNTC (modifications not checked) [HPV45.E6.127 HTL epitope] : provide log10 of IC50
2.55

---
Item WKHIRLECVLMYKAR (modifications not checked) [HPV31.E2.033 HTL epitope] : provide log10 of IC50
1.85
